# targetUnderTest: Neprilysin (Homo sapiens, UniProt P08473)
# Sequence (P08473 whole entry): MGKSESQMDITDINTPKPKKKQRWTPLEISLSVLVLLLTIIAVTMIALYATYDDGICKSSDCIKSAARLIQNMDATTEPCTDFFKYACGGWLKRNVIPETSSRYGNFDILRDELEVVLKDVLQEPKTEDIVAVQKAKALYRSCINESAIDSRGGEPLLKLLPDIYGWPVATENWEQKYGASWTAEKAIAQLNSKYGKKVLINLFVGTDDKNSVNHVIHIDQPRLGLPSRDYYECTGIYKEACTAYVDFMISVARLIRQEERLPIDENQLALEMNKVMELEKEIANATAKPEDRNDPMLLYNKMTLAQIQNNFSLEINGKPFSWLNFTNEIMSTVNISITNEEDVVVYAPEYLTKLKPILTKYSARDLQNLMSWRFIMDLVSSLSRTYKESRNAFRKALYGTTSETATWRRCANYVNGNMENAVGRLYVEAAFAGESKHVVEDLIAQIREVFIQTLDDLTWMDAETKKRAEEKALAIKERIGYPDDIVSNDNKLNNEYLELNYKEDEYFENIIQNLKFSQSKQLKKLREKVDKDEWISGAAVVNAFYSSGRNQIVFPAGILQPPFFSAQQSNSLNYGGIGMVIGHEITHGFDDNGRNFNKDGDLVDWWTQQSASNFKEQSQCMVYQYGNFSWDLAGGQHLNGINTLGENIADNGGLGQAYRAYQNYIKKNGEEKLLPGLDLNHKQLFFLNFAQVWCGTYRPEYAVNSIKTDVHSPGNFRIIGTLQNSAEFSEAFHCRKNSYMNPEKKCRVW
# methodDescription: Inhibition of neutral endopeptidase in human umbilical vein endothelial cells
# Format: cell-based, Endothelial cell
testReadout: pIC50
Scale: negative log10 of molar concentration, which is what pIC50 denotes.

Use the examples below as a reference point.
O=C(O)CNC(=O)C(Cc1ccccc1)CP(=O)(O)[C@H](Cc1ccccc1)NC(=O)OCc1ccccc1 (some centres undefined) :: 6.05
O=C(N[C@@H](Cc1ccccc1)P(=O)(O)CC(Cc1ccccc1)C(=O)NC(Cc1ccccc1)C(=O)O)OCc1ccccc1 (mixture of isomers) :: 6.10

Here is the next item to consider.
Reported Neprilysin (Homo sapiens, UniProt P08473) pIC50 for item CC(NC(=O)C(Cc1ccccc1)CP(=O)(O)[C@H](Cc1ccccc1)NC(=O)OCc1ccccc1)C(=O)O (mixture of isomers) was 6.52

----------
# targetUnderTest: Neprilysin (Homo sapiens, UniProt P08473)
# methodDescription: Inhibition of neutral endopeptidase in human umbilical vein endothelial cells
# Assay type: cell-based, Endothelial cell
// reported pIC50 for each item listed
Scale: negative log10 of molar concentration, which is what pIC50 denotes.

O=C(N[C@@H](Cc1ccccc1)P(=O)(O)CC(Cc1ccccc1)C(=O)NC(Cc1c[nH]c2ccccc12)C(=O)O)OCc1ccccc1 (stereo in doubt) :: 5.00
CC(O)C(NC(=O)C(Cc1ccccc1)CP(=O)(O)[C@H](Cc1ccccc1)NC(=O)OCc1ccccc1)C(=O)O (mixture of isomers) :: 5.00
N=C(N)NCCCC(NC(=O)C(Cc1ccccc1)CP(=O)(O)[C@H](Cc1ccccc1)NC(=O)OCc1ccccc1)C(=O)O (mixture of isomers) :: 6.10
O=C(O)CCNC(=O)C(Cc1ccccc1)CP(=O)(O)[C@H](Cc1ccccc1)NC(=O)OCc1ccccc1 (mixture of isomers) :: 5.64
O=C(N[C@@H](Cc1ccccc1)P(=O)(O)CC(Cc1ccccc1)C(=O)NC(Cc1c[nH]c2ccccc12)C(=O)O)OCc1ccccc1 (mixture of isomers) :: 5.85

Lookup result for C[C@H](O)[C@@H](NC(=O)C(Cc1ccccc1)CP(=O)(O)[C@H](Cc1ccccc1)NC(=O)OCc1ccccc1)C(=O)O (single isomer, unassigned) ; measured pIC50: 4.30

Lookup result for NC(=O)CCC(NC(=O)C(Cc1ccccc1)CP(=O)(O)[C@H](Cc1ccccc1)NC(=O)OCc1ccccc1)C(=O)O (mixture of isomers) ; measured pIC50: 4.82

Lookup result for O=C(N[C@@H](Cc1ccccc1)P(=O)(O)CC(Cc1ccccc1)C(=O)NC(Cc1ccc(O)cc1)C(=O)O)OCc1ccccc1 (mixture of isomers) ; measured pIC50: 5.64

Lookup result for O=C(N[C@@H](Cc1ccccc1)P(=O)(O)CC(Cc1ccccc1)C(=O)NC(Cc1c[nH]cn1)C(=O)O)OCc1ccccc1 (mixture of isomers) ; measured pIC50: 5.00

Lookup result for NC(=O)CC(NC(=O)C(Cc1ccccc1)CP(=O)(O)[C@H](Cc1ccccc1)NC(=O)OCc1ccccc1)C(=O)O (mixture of isomers) ; measured pIC50: 5.00

Lookup result for O=C(N[C@@H](Cc1ccccc1)P(=O)(O)CC(Cc1ccccc1)C(=O)NC(Cc1ccc(O)cc1)C(=O)O)OCc1ccccc1 (single isomer, unassigned) ; measured pIC50: 6.00

----------
# targetUnderTest: Neprilysin (Homo sapiens, UniProt P08473)
# methodDescription: Inhibition of neutral endopeptidase in human umbilical vein endothelial cells
# Assay type: cell-based, Endothelial cell
# conditionSet: endothelial cell
pIC50: −log10 of the molar value.
testReadout: pIC50

Lookup result for NCCCCC(NC(=O)C(Cc1ccccc1)CP(=O)(O)[C@H](Cc1ccccc1)NC(=O)OCc1ccccc1)C(=O)O (stereo in doubt) ; measured pIC50: < 4.00
